# test.description: Cytotoxicity determination in HepG2.2.15 cells (CCK-8)
# Format: cell-based
# test.parameters: human, 6 days treatment, CCK-8, highest concentration 100 uM
observation.type: CC50 at 6 days (µM)
Number in µM, nothing else.

// worked examples, CC50 at 6 days included
>>> measurement("COC(=O)C1=C(C2CCN(c3ncc(CC(=O)O)c(C)n3)CC2)NC(c2nccs2)=NC1c1ccc(F)c(F)c1Cl (single isomer, unassigned) [II-28-B]")
5.33
>>> measurement("COC(=O)C1=C(C2CCN(c3ncc(N(C)C)c(C(=O)O)n3)CC2)NC(c2nccs2)=NC1c1ccc(F)c(F)c1Cl (single isomer, unassigned) [II-91-B]")
26.1

Lookup: For the molecule COC(=O)C1=C(C2CCN(c3ncc(C)c(C(=O)O)n3)CC2)NC(c2nccs2)=NC1c1ccc(F)cc1Cl (single isomer, unassigned) [II-14-A] , what CC50 at 6 days is on record?
Found: 32.1

----------
# test.description: Cytotoxicity determination in HepG2.2.15 cells (CCK-8)
# Type: cell-based
# test.parameters: human, 6 days treatment, CCK-8, highest concentration 100 uM
# Protocol: Example 2: Anti-Viral Assay in HepG2.2.15 Cells 1.1. […] After 6 days of compounds treatment, add 20 μl CCK-8 reagents to each well of cytotoxicity assay plates, incubate the plate at 37° C., 5% CO2 for 2.5 h and measure the absorbance at 450 nm wavelength, at the same time read the absorbance at 630 nm wavelength as reference. EC50 and CC50 values are calculated by the GRAPHPAD PRISM software.
observation.type: CC50 at 6 days

>>> measurement("COC(=O)C1=C(C2CCN(C(=O)c3cn[nH]c3)CC2)NC(c2nccs2)=NC1c1ccc(F)cc1Cl (single isomer, unassigned)")
"16.2 µM"
>>> measurement("COC(=O)C1=C(C2CCN(c3ncc(C(=O)O)s3)CC2)NC(c2nccs2)=NC1c1ccc(F)cc1Cl (single isomer, unassigned)")
"19.3 µM"

Lookup: For the compound CCOC(=O)C1=C(C2CCN(c3ccc(C(=O)O)nc3Cl)CC2)NC(c2nccs2)=NC1c1ccc(F)c(F)c1Cl (single isomer, unassigned) , what CC50 at 6 days is on record?
Found: 2.57 µM

Lookup: For the compound CCOC(=O)C1=C(C2CCN(c3nc(C(=O)O)cs3)CC2)NC(c2nccs2)=NC1c1ccc(F)c(F)c1Cl (single isomer, unassigned) , what CC50 at 6 days is on record?
Found: 10.2 µM

Lookup: For the compound CCOC(=O)C1=C(C2CCC(c3cnn(C(C)CC(=O)O)c3)CC2)NC(c2nccs2)=NC1c1ccc(F)c(F)c1Cl (stereo not drawn) , what CC50 at 6 days is on record?
Found: 3.78 µM

Lookup: For the compound CCOC(=O)C1=C(C2CCN(c3nccc(C(=O)O)n3)CC2)NC(c2nccs2)=NC1c1ccc(F)c(F)c1Cl (single isomer, unassigned) , what CC50 at 6 days is on record?
Found: 6.64 µM

----------
# test.description: Cytotoxicity determination in HepG2.2.15 cells (CCK-8)
# Type: cell-based
# test.parameters: human, 6 days treatment, CCK-8, highest concentration 100 uM
Output true for records whose CC50 at 6 days is lower than 8 µM, false for records at or above 8 µM.

>>> classification("COC(=O)C1=C(C2CCN(c3cc(C(=O)O)c(C)cn3)CC2)NC(c2nccs2)=NC1c1ccc(F)cc1Cl (single isomer, unassigned) [II-89-B]")
"false"
>>> classification("CCOC(=O)C1=C(C2CCN(c3nccc(C(=O)O)c3F)CC2)NC(c2nccs2)=NC1c1ccc(F)c(F)c1Cl (single isomer, unassigned) [II-40-B]")
"false"
>>> classification("CCOC(=O)C1=C([C@H]2CC[C@H](c3cnn(C(C)(C)CC(=O)O)c3)CC2)NC(c2nccs2)=NC1c1ccc(F)c(F)c1Cl (single isomer, unassigned) [Compound I-30-D]")
"true"
>>> classification("COC(=O)C1=C(C2CCN(c3ncc(C)c(C(=O)O)n3)CC2)NC(c2nccs2)=NC1c1ccc(F)cc1Br (single isomer, unassigned) [II-99-B]")
"false"

Lookup: Input CCOC(=O)C1=C([C@H]2CC[C@H](c3cc(C(=O)O)no3)CC2)NC(c2nccs2)=NC1c1ccc(F)c(F)c1Cl (single isomer, unassigned) [Compound I-42-B] ; condition: CC50 at 6 days strictly below 8 µM. Does it hold?
Found: false

Lookup: Input COC(=O)C1=C(C2CCN(c3ncc(C(=O)O)s3)CC2)NC(c2nccs2)=NC1c1ccc(F)cc1Br (single isomer, unassigned) [II-84-B] ; condition: CC50 at 6 days strictly below 8 µM. Does it hold?
Found: false

Lookup: Input CCOC(=O)C1=C([C@H]2CC[C@H](c3cc(C(=O)O)n(C)n3)CC2)NC(c2nccs2)=NC1c1ccc(F)c(F)c1Cl (single isomer, unassigned) [Compound I-36-B] ; condition: CC50 at 6 days strictly below 8 µM. Does it hold?
Found: true

Lookup: Input CCOC(=O)C1=C(C2CCN(c3nc(C)c(C)c(C(=O)O)n3)CC2)NC(c2nccs2)=NC1c1ccc(F)c(F)c1Cl (single isomer, unassigned) [II-56-B] ; condition: CC50 at 6 days strictly below 8 µM. Does it hold?
Found: true

Lookup: Input CCOC(=O)Cc1ccnc(N2CCC(C3=C(C(=O)OC)C(c4ccc(F)cc4Cl)N=C(c4nccs4)N3)CC2)n1 (single isomer, unassigned) [XI-13-S] ; condition: CC50 at 6 days strictly below 8 µM. Does it hold?
Found: false

Lookup: Input CCOC(=O)C1=C(C2CCN(c3ccc(C(=O)O)cn3)CC2)NC(c2nccs2)=NC1c1ccc(F)c(F)c1Cl (single isomer, unassigned) [II-43-B] ; condition: CC50 at 6 days strictly below 8 µM. Does it hold?
Found: false

----------
# test.description: Cytotoxicity determination in HepG2.2.15 cells (CCK-8)
# Format: cell-based
# test.parameters: human, 6 days treatment, CCK-8, highest concentration 100 uM
observation.type: CC50 at 6 days
Lab note: write values as number then unit, every time.

>>> measurement("COC(=O)C1=C([C@H]2CC[C@H](c3ncc(C)c(C(=O)O)n3)CC2)NC(c2nccs2)=NC1c1ccc(F)c(F)c1Br (single isomer, unassigned)")
"19.3 µM"
>>> measurement("COC(=O)C1=C(C2CN(C(=O)c3ccccc3)C2)NC(c2nccs2)=NC1c1ccc(F)cc1Cl (single isomer, unassigned)")
"9.86 µM"

Please look at the following compound next.
Lookup: For the compound CCOC(=O)C1=C([C@H]2CC[C@H](c3cc(C(=O)O)nn3C)CC2)NC(c2nccs2)=NC1c1ccc(F)c(F)c1Cl (single isomer, unassigned) , what CC50 at 6 days is on record?
Found: 7.16 µM

----------
# test.description: Cytotoxicity determination in HepG2.2.15 cells (CCK-8)
# Format: cell-based
# test.parameters: human, 6 days treatment, CCK-8, highest concentration 100 uM
Structures can show the parent of a compound that is named as a salt.
observation.type: CC50 at 6 days
Lab note: write values as number then unit, every time.

// worked examples, CC50 at 6 days included
>>> measurement("CCOC(=O)C1=C(C2CCN(c3cc(C(=O)O)nc(OC)n3)CC2)NC(c2nccs2)=NC1c1ccc(F)c(F)c1Cl (single isomer, unassigned)")
"3.7 µM"
>>> measurement("CCOC(=O)C1=C(C2CCN(c3cnc(C(=O)O)s3)CC2)NC(c2nccs2)=NC1c1ccc(F)c(F)c1Cl (single isomer, unassigned) [II-76-B, lithium salt]")
"6.68 µM"

Please look at the following compound next.
Lookup: For the compound CCOC(=O)C1=C(C2CCC(c3cnn(C4CC(C(=O)O)C4)c3)CC2)NC(c2nccs2)=NC1c1ccc(F)c(F)c1Cl (stereo not drawn) , what CC50 at 6 days is on record?
Found: 2.79 µM

----------
# test.description: Cytotoxicity determination in HepG2.2.15 cells (CCK-8)
# Format: cell-based
# test.parameters: human, 6 days treatment, CCK-8, highest concentration 100 uM
Output YES for records whose CC50 at 6 days is lower than 7 µM, NO for records at or above 7 µM.

>>> classification("COC(=O)C1=C(C2CCN(c3ncc(CC(=O)O)cn3)CC2)NC(c2nccs2)=NC1c1cccc(F)c1C (single isomer, unassigned)")
"YES"
>>> classification("COC(=O)C1=C(C2CCN(c3ncc(CC(=O)O)cn3)CC2)NC(c2nccs2)=NC1c1ccc(F)c(F)c1C (single isomer, unassigned)")
"YES"
>>> classification("CCOC(=O)C1=C(C2CCN(c3ncc(CC)c(C(=O)O)n3)CC2)NC(c2nccs2)=NC1c1ccc(F)c(F)c1Cl (single isomer, unassigned)")
"NO"
>>> classification("COC(=O)C1=C(C2CCN(c3ncc(C(=O)O)o3)CC2)NC(c2nccs2)=NC1c1ccc(F)c(F)c1Cl (single isomer, unassigned)")
"NO"
>>> classification("CCOC(=O)C1=C(C2CCN(c3ncc(F)c(C(=O)O)n3)CC2)NC(c2nccs2)=NC1c1ccc(F)c(F)c1Cl (single isomer, unassigned)")
"YES"
>>> classification("CCOC(=O)C1=C(C2CCN(c3cc(C(=O)O)nc(C)n3)CC2)NC(c2nccs2)=NC1c1ccc(F)c(F)c1Cl (single isomer, unassigned)")
"NO"
>>> classification("CCOC(=O)C1=C(C2CCN(c3cc(C(F)(F)F)c(C(=O)O)cn3)CC2)NC(c2nccs2)=NC1c1ccc(F)c(F)c1Cl (single isomer, unassigned)")
"YES"
>>> classification("CCOC(=O)C1=C(C2CCN(c3ncc(C(C)(C)C(=O)O)cn3)CC2)NC(c2nccs2)=NC1c1ccc(F)c(F)c1Cl (single isomer, unassigned)")
"YES"

Lookup: Input CCOC(=O)C1=C(C2CCN(c3ncc(N(C)C)c(C(=O)O)n3)CC2)NC(c2nccs2)=NC1c1ccc(F)cc1Br (single isomer, unassigned) ; condition: CC50 at 6 days strictly below 7 µM. Does it hold?
Found: NO

Lookup: Input CCOC(=O)C1=C(C2CCN(c3ncc(C(C)C)c(C(=O)O)n3)CC2)NC(c2nccs2)=NC1c1ccc(F)c(F)c1Cl (single isomer, unassigned) ; condition: CC50 at 6 days strictly below 7 µM. Does it hold?
Found: NO

Lookup: Input CCOC(=O)C1=C(C2CCN(c3nc(C(=O)O)co3)C2)NC(c2nccs2)=NC1c1ccc(F)c(F)c1Cl (single isomer, unassigned) ; condition: CC50 at 6 days strictly below 7 µM. Does it hold?
Found: YES
